B1: ZNF8 (parent)
chain: RTHTGEKPYTCSVCGKSFSRTTCL

# Variants of: B1
# Run Description: protein stability index of a GFP-peptide fusion (GPS, HEK-293T) (PSI 1-6); higher = more stable;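 note: lentivirally expressed fusions sorted by FACS into six bins by GFP to DsRed ratio, PSI derived from sequencing read proportions per bin multiplied by bin number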
# Condition Details: c terminus: a fixed tail appended
Quantity Kind: protein stability index
I'd appreciate a reply containing only the number, no unit.

Examples with their reported protein stability index follow.
In [3]: df
Out[3]:
   sequence_change  observed_value
0             G15F            2.28
1              R1F            2.22
2             C23H            2.26

In: Tell me protein stability index reported for S19N
Out: 2.67
